# METHOD_SUMMARY: NCI Yeast Anticancer Drug Screen. Data for the cln2 rad14 strain (AID 165);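 note: 0% = growth equal to vehicle treated cultures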
# ASSAY_CONTEXT: S. cerevisiae cln2 rad14 strain, at 50.0 µM (retest, dose inferred, filed as 5.0), hits give high values
This is part of a sample that, as a whole, favours compounds with a hit. Of some 79,000 tested, about 15% had one in any assay.
RESULT_TYPE: growth inhibition (%)
State the answer as a number, implicitly in %.

growth inhibition measured on NC1=NCN(C2OC(COCc3ccccc3)C(OCc3ccccc3)C2OCc2ccccc2)C(=O)N1 (stereo unspecified) = 58

growth inhibition recorded for this compound, C#CCN1CCN(C(=S)N/N=C(\C)c2ccccn2)CC1 , is 99

Data point: Clc1cccc2c(-c3ccccc3)c3cccc(Cl)c3cc12 ; growth inhibition = 54

response.value for CCCC(C(=O)OCCN1CCCC1(C)C)C1CCCC1 (stereo unspecified) (field: growth inhibition) = 58

Looking up CN1C(=O)[C@@H]2N(N(C)C1=O)[C@@]1(Br)C(=O)N(C)C(=O)[C@@]21Br , I see its growth inhibition listed as 24

Please fill in: growth inhibition reported for CCCCN(CCCC)CCCC(O)c1c2ccc(Cl)cc2nc2ccc(OC)cc12 (stereo unspecified) = 0

###

# METHOD_SUMMARY: NCI Yeast Anticancer Drug Screen. Data for the mlh1 rad18 strain (AID 175)
# ASSAY_CONTEXT: S. cerevisiae mlh1 rad18 strain growth inhibition; at 5.0 µM (retest, dose inferred, filed as 0.5); hits give high values
This is part of a sample that, as a whole, favours compounds with a hit. Of some 79,000 tested, about 15% had one in any assay.
RESULT_TYPE: growth inhibition (%)
Number only, in %; omit the unit.

For reference, reported growth inhibition for CCCCCCCCCCCCS(=O)(=O)CC(Br)C(=O)c1ccco1 (configuration not stated) stands at 68

Entry CN(C)CC1CCc2ccc3ccccc3c2C1=O (configuration not stated) — recorded growth inhibition = 29

Please fill in: growth inhibition reported for CCCCCCC(C)OC(=O)c1ccccc1C(=O)O (configuration not stated) = -13

For this compound ( CC(=O)Nc1ccc(/C=N\NC(=O)c2ccco2)cc1 ), measured growth inhibition is -2

growth inhibition reading for CSc1ccc(/C=C2/C[N+](C)(C)C/C(=C/c3ccc(SC)cc3)C2=O)cc1 : 32

In plain terms, O=C(CC(=O)c1ccccc1)CC(O)(c1ccccc1)c1ccccc1 has a documented growth inhibition of 42

The recorded growth inhibition for entry CCCCN(CCCC)C(=O)c1ccc(Cl)cc1Cl equals 13

response.value for OC(c1ccc(Cl)cc1)c1ccc(Cl)cc1 (field: growth inhibition) = -6

For reference, reported growth inhibition for O=C(NC(Cc1ccccc1)C(=O)O)c1ccncc1 (configuration not stated) stands at -1

The measured growth inhibition associated with Cc1ccc(S(=O)(=O)OCC(C)(C)C)cc1 reads -125

The compound identified as O=C(Nc1ccccc1)c1cccc2ccccc12 registered its growth inhibition at -15

Measured growth inhibition, COC(=O)C1C(=O)CC(c2ccccc2)C1c1ccccc1 (configuration not stated) : 0

###

# METHOD_SUMMARY: NCI Yeast Anticancer Drug Screen. Data for the mec2-1 strain (AID 157)
# ASSAY_CONTEXT: S. cerevisiae mec2-1 strain, at 50.0 µM (retest, dose inferred, filed as 5.0), hits give high values
The panel holds about 79,000 compounds, 15% with a hit somewhere; the sample as a whole holds those more often.
Provide the recorded growth inhibition for the entries that follow.
Quick reminder: number only, in %, skip the unit.

The compound listed as Oc1cc(Br)cc2cccnc12 has a reported growth inhibition of 99

Recorded growth inhibition (compound CC(=O)N(N)c1ccccc1 ): 42

Just so you know, measured growth inhibition for O=C1CCC(C(c2ccccc2)(c2ccccc2)c2ccccc2)CC1=O (stereo not given) came out at 98

# growth inhibition (compound: CCc1scc(C)[n+]1CC(=O)c1cccc([N+](=O)[O-])c1 ) is 3

Per the record, CCOP(=O)(OCC)/C(C#N)=C/c1ccc(Oc2ccccc2)cc1 has growth inhibition of 98

Entry under test: CCCCCC(C)[P+](c1ccccc1)(c1ccccc1)c1ccccc1 (stereo not given) . Its growth inhibition was 99

The reported value for O=C1C(C(O)(C(F)(F)Cl)C(F)(F)Cl)CCC1C(O)(C(F)(F)Cl)C(F)(F)Cl (stereo not given) in terms of growth inhibition is 100

Documented growth inhibition of Cc1nc2ccc3c(ccc4nc(C)c(N=Nc5ccc(C(=N)N)cc5)c(O)c43)c2c(O)c1N=Nc1ccc(C(=N)N)cc1 : 95

The measured growth inhibition associated with CC(=O)N(C1=C(Cl)C(=O)c2ccccc2C1=O)c1ccc(C)cc1 reads 100

Entry under test: N#C/C(=C\c1cc(Cl)cc(Cl)c1O)C(/C(C#N)=C/c1cc(Cl)cc(Cl)c1O)c1ccc2c(c1)OCO2 (stereo not given) . Its growth inhibition was 99

###

# METHOD_SUMMARY: NCI Yeast Anticancer Drug Screen. Data for the cln2 rad14 strain (AID 165);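 note: 0% = growth equal to vehicle treated cultures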
# ASSAY_CONTEXT: S. cerevisiae cln2 rad14 strain, at 50.0 µM, hits give high values
This is part of a sample that, as a whole, favours compounds with a hit. Of some 79,000 tested, about 15% had one in any assay.
RESULT_TYPE: growth inhibition (%)
All answers are understood in %, so give the number only.

For record CCOC1(OCC)Cc2nc3ccccc3cc21 the listed growth inhibition is 92.5

Lab note: O=C1C(Cl)=C(Cl)C(=O)C2CC=CCC12 (stereo unspecified) gave growth inhibition of 99.1

Quick note, growth inhibition for COc1cccc(/C=C/C(C)=O)c1OC landed at 21.9

Noted for COC(=O)c1cc(-c2ccc(C)cc2)c2c(=O)n(-c3ccccc3)[nH]c2n1 : its growth inhibition reads 94.8

Record COC1=CC(=O)c2c(ccc3ncnc(N)c23)C1=O , field growth inhibition: 24.9

Recorded growth inhibition (molecule CCCCCCC[CH2][Sn]([CH2]CCCCCCC)([O]c1cccc2cccnc12)[O]c1cccc2cccnc12 ): 85.4

Recorded growth inhibition (molecule COC1=CC(=O)C(C#CCOCc2ccccc2)=CC1=O ): 94.7

Entry [Cl][Sn]([O][Sn]([Cl])([c]1ccccc1)[CH]1CCCCC1)([c]1ccccc1)[CH]1CCCCC1 (stereo unspecified) — recorded growth inhibition = 90.1

Entry CC(C)C(O)(C(=O)OCN1C(=O)C2C3C=CC(C2C1=O)C1C2C(=O)N(COC(=O)C(O)(C(C)C)C(C)O)C(=O)C2C31)C(C)O (stereo unspecified) , growth inhibition reported as 18.1

Briefly, growth inhibition measured for CCOC(=O)C1c2[nH]c3ccccc3c2CCN1C(=O)c1ccc(OC)o1 (stereo unspecified) : 67.7

Please fill in: growth inhibition reported for CC(NNC(=S)N1CCCC1)c1cc2ccccc2cn1 (stereo unspecified) = 90.3

GET /value?item= Cc1ccc(Nc2nc(C)c(C(/C=C/c3ccc4c(c3)OCO4)=N/Nc3ccc([N+](=O)[O-])cc3[N+](=O)[O-])s2)c([N+](=O)[O-])c1 &field=growth inhibition returns 68.2

Note to self: growth inhibition recorded for O=C(O)CCC(=O)c1ccc2c(c1)CCCC2 was -24.1

According to the records, this molecule O=S(=O)(SCc1ccccc1)C(c1ccccc1)c1ccccc1 displays growth inhibition of 95.5

response.value for Oc1cc(CNCc2ccccc2)c(O)c(CNCc2ccccc2)c1 (field: growth inhibition) = 38.2

Quick note, growth inhibition for O=C(N/C(=C\c1ccccc1)C(=O)N1CCN(c2ccccc2)CC1)c1ccccc1 landed at 87.8

Just so you know, measured growth inhibition for CC(=O)N(C)c1ccc(/C=C2\C=Cc3ccccc32)cc1 came out at 32.8

growth inhibition reported for this molecule C[n+]1c(-c2ccc(/C=N\NC(=O)c3ccc(C(=O)N/N=C/c4ccc(-c5cn6ccsc6[n+]5C)cc4)cc3)cc2)cn2ccsc21 : 86.7

Notebook: Nc1c(NCc2ccccc2)ccc2ncccc12 , growth inhibition read as 96.4

get_value(item= CCOC(=O)c1nc(SC)sc1NC(=O)c1ccccc1Cl , readout=growth inhibition) returns 27.8

Just so you know, measured growth inhibition for CN(C)c1ccccc1CCCCCCc1ccccc1N(C)C came out at 85.2

###

# METHOD_SUMMARY: NCI Yeast Anticancer Drug Screen. Data for the mlh1 rad18 strain (AID 175)
# ASSAY_CONTEXT: S. cerevisiae mlh1 rad18 strain growth inhibition; at 5.0 µM (retest, dose inferred, filed as 0.5); hits give high values
Compounds without any hit were thinned out: in the full panel of roughly 79,000, 15% have a hit.
RESULT_TYPE: growth inhibition (%)
Record the value in %, omitting the unit from your answer.

Short answer for CC(=O)NNc1nc(C)c(C(=O)NNC(=O)C(=O)Nc2c(C)cccc2C(C)C)s1 : growth inhibition was -4

Form: compound = C1CCC2CC3(CCNCC3)CCC2C1 (stereo not given) ; growth inhibition = 9

get_value(item= CCCC#CCCOC(=O)c1cc([N+](=O)[O-])cc([N+](=O)[O-])c1 , readout=growth inhibition) returns 5

growth inhibition for CCc1cc(/C=C\c2ccnc3ccccc23)ccc1N(C)C is -8

Reported growth inhibition of COc1nc2nc(Cl)cc(C)c2c2ccccc12 (tested in a mixture with another compound) : 17

Lab note: measured growth inhibition of O=C(OCCC1CCCCC1)c1cc([N+](=O)[O-])cc([N+](=O)[O-])c1 was 12

Consider CC(=O)NCC1OC2COC(c3ccccc3)OC2C(NC(=O)c2ccccc2)C1OC(=O)c1ccccc1 (stereo not given) . Its measured growth inhibition is 15

get_value(item= COC(=O)CCC(=O)N1C/C(=C\c2ccccc2)C(=O)/C(=C/c2ccccc2)C1 , readout=growth inhibition) returns 7

Measured growth inhibition of Cc1ccc(C2C(O)=C(c3ccccc3)Sc3ccc(C)cc32)cc1 (stereo not given) : -8

Recorded result, O=C1c2ccc3ccccc3c2CCC1[n+]1ccc2ccccc2c1 (stereo not given) , growth inhibition: 15
